All figures here come from patent USRE47475E1.

Listed next: entries and their corresponding Ki.
- measuredTarget: GABAA/α6 (α6β3γ2 GABAA receptor) (Homo sapiens, UniProt P18507+Q16445)
- Construct: expressed in transfected cells
- assaySummary: competitive binding assay with [3H]flunitrazepam
- conditionInfo: Table 3; read-out: Binding Affinity at GABAA/α6

C#Cc1ccc2c(c1)C(c1ccccc1)=NCC(=O)N2C [QB-II-066]
> 1000 nM

Consider the record given below.
Query block: Return reported Ki; argument: C#Cc1ccc2c(c1)C(c1ccccc1Cl)=NCc1nnc(C)n1-2 [XLI-JY-DMH]
Result block: > 5000 nM

====

Listed next: entries and their corresponding pKi.
- measuredTarget: GABAA/α5 (α5β3γ2 GABAA receptor) (Homo sapiens, UniProt P18507+P31644)
- Construct: expressed in transfected cells
- assaySummary: competitive binding assay with [3H]flunitrazepam
- conditionInfo: Binding Affinity at GABAA/α5, Table 3
Note: pKi values are expressed as the negative base-10 logarithm of concentration in M.

Sample answers from the record:
C#Cc1ccc2c(c1)C(c1ccccc1)=NCc1c(-c3nc(CC)no3)ncn1-2 [PS-I-26]
6.41
C#Cc1ccc2c(c1)C(c1cccs1)=NCc1c(C(=O)OCC)ncn1-2 [JC-221]
7.84

Consider the record given below.
Query block: Return reported pKi; argument: CCOC(=O)c1ncn2c1CN=C(c1ccccc1)c1cc(I)ccc1-2 [HZ 120]
Result block: 7.69

====

- measuredTarget: GABAA/α1 (α1β3γ2 GABAA receptor) (Homo sapiens, UniProt P14867+P18507)
- Construct: expressed in transfected cells
- assaySummary: competitive binding assay with [3H]flunitrazepam
- conditionInfo: Binding Affinity at GABAA/α1, Table 3
metric: Ki (nM)
Express it in nM; write the number only.

Query block: Return reported Ki; argument: C#Cc1ccc2c(c1)C(c1ccccc1)=NCc1c(-c3nc(CC)no3)ncn1-2 [PS-I-26]
Result block: 933

====

Listed next: entries and their corresponding melting point.

Sample answers from the record:
C[Si](C)(C)C#Cc1ccc2c(c1)C(c1ccccn1)=NCC(=O)N2
242 to 243 °C
CCOC(=O)c1ncn2c1CN=C(c1ccccn1)c1cc(C#C[Si](C)(C)C)ccc1-2
205 to 206 °C
CNC1=Nc2ccc(C#C[Si](C)(C)C)cc2C(c2ccccc2)=NC1
210 to 211 °C
C#Cc1ccc2c(c1)C(c1ccccc1)=NCc1c(C(=O)OCC(F)(F)F)ncn1-2
188 to 190 °C
CN1C(=O)CN=C(c2ccccn2)c2cc(C#C[Si](C)(C)C)ccc21
194 to 195 °C

Query block: Return reported melting point; argument: "O=C(OCC(Cl)(Cl)Cl)c1ncn2c1CN=C(c1ccccc1)c1cc(Br)ccc1-2"
Result block: 113 to 116 °C

Query block: Now give it for "C#Cc1ccc2c(c1)C(c1ccccn1)=NCC(=O)N2C" too.
Result block: 190 to 191 °C

Query block: Now give it for "CCOC(=O)c1ncn2c1CN=C(c1ccccc1)c1cc(Cl)ccc1-2" too.
Result block: 174 to 175 °C

Query block: Now give it for "C[Si](C)(C)C#Cc1ccc2c(c1)C(c1ccccc1)=NCc1c(C(=O)OCC(F)(F)F)ncn1-2" too.
Result block: 107 to 110 °C

====

- measuredTarget: GABAA/α6 (α6β3γ2 GABAA receptor) (Homo sapiens, UniProt P18507+Q16445)
- Construct: expressed in transfected cells
- assaySummary: competitive binding assay with [3H]flunitrazepam
metric: Ki (µM)
Express it in µM; write the number only.

Query block: Quick check: Ki on GABAA/α6 (α6β3γ2 GABAA receptor) (Homo sapiens, UniProt P18507+Q16445), item "CCOC(=O)c1ncn2c1CN=C(c1ccccc1)c1cc(I)ccc1-2" ?
Result block: 0.0322

====

- measuredTarget: GABAA/α1 (α1β3γ2 GABAA receptor) (Homo sapiens, UniProt P14867+P18507)
- Construct: expressed in transfected cells
- assaySummary: competitive binding assay with [3H]flunitrazepam
- conditionInfo: Binding Affinity at GABAA/α1, Table 4, stereoisomers
metric: Ki (µM)
Express it in µM; write the number only.

Query block: Return reported Ki; argument: C#Cc1ccc2c(c1)C(c1ccccn1)=NC(C)c1c(C(=O)OCC)ncn1-2 (stereo not shown)
Result block: 6.95

====

- measuredTarget: GABAA/α5 (α5β3γ2 GABAA receptor) (Homo sapiens, UniProt P18507+P31644)
- Construct: expressed in transfected cells
- assaySummary: competitive binding assay with [3H]flunitrazepam
- conditionInfo: Binding Affinity at GABAA/α5, Table 4, stereoisomers
metric: pKi
Note: pKi values are expressed as the negative base-10 logarithm of concentration in M.

Query block: Quick check: pKi on GABAA/α5 (α5β3γ2 GABAA receptor) (Homo sapiens, UniProt P18507+P31644), item C#Cc1ccc2c(c1)C(c1ccccn1)=NC(C)c1c(C(=O)OCC)ncn1-2 (stereo not shown) [SH-053-2′N-S-CH3] ?
Result block: 6.13

====

- measuredTarget: GABAA/α2 (α2β3γ2 GABAA receptor) (Homo sapiens, UniProt P18507+P47869)
- Construct: expressed in transfected cells
- assaySummary: competitive binding assay with [3H]flunitrazepam
- conditionInfo: Table 3; read-out: Binding Affinity at GABAA/α2
metric: Ki
Kindly write the number and append the unit.

Sample answers from the record:
C#Cc1ccc2c(c1)C(c1ccccc1)=NCC(=O)N2C
42.1 nM
C#Cc1ccc2c(c1)C(c1ccccc1F)=NCc1c(C(=O)OCC)ncn1-2
12.3 nM

Query block: Return reported Ki; argument: "C#Cc1ccc2c(c1)C(c1ccccc1Cl)=NCc1nnc(C)n1-2"
Result block: 0.58 nM

====

- measuredTarget: GABAA/α4 (α4β3γ2 GABAA receptor) (Homo sapiens, UniProt P18507+P48169)
- assaySummary: competitive binding assay with [3H]flunitrazepam
- conditionInfo: Table 3; read-out: Binding Affinity at GABAA/α4
- Procedure: Membranes were harvested with a Brandel cell harvester followed by three ice-cold washes onto polyethyleneimine-pretreated (0.3%) Whatman GF/C filters. […] Bound radioactivity was quantified by liquid scintillation counting. Membrane protein concentrations were determined using an assay kit from Bio-Rad (Hercules, Calif.) with bovine serum albumin as the standard. The GABAA subunit selectivity of several compounds prepared as described above were determined using competitive binding assays. […]
metric: Ki

Query block: Quick check: Ki on GABAA/α4 (α4β3γ2 GABAA receptor) (Homo sapiens, UniProt P18507+P48169), item "C#Cc1ccc2c(c1)C(c1ccccc1)=NCC(=O)N2C" ?
Result block: > 1000 nM

====

- measuredTarget: GABAA/α2 (α2β3γ2 GABAA receptor) (Homo sapiens, UniProt P18507+P47869)
- Construct: expressed in transfected cells
- assaySummary: competitive binding assay with [3H]flunitrazepam
- conditionInfo: Binding Affinity at GABAA/α2, Table 3
- Description: Membranes were harvested with a Brandel cell harvester followed by three ice-cold washes onto polyethyleneimine-pretreated (0.3%) Whatman GF/C filters. […] Bound radioactivity was quantified by liquid scintillation counting. Membrane protein concentrations were determined using an assay kit from Bio-Rad (Hercules, Calif.) with bovine serum albumin as the standard. The GABAA subunit selectivity of several compounds prepared as described above were determined using competitive binding assays. […]
Listed next: entries and their corresponding pKi.
Note: pKi values are expressed as the negative base-10 logarithm of concentration in M.

CCOC(=O)c1ncn2c1CN=C(c1ccccc1)c1cc(I)ccc1-2
7.46

Consider the record given below.
Query block: Return reported pKi; argument: "C#Cc1ccc2c(c1)C(c1ccccc1)=NCc1c(-c3nc(CC)no3)ncn1-2"
Result block: 6.44

====

- measuredTarget: GABAA/α3 (α3β3γ2 GABAA receptor) (Homo sapiens, UniProt P18507+P34903)
- Construct: expressed in transfected cells
- assaySummary: competitive binding assay with [3H]flunitrazepam
- conditionInfo: Binding Affinity at GABAA/α3, Table 4, stereoisomers
metric: pKi
Note: pKi values are expressed as the negative base-10 logarithm of concentration in M.

Query block: Return reported pKi; argument: C#Cc1ccc2c(c1)C(c1ccccn1)=NC(C)c1c(C(=O)OCC)ncn1-2 (stereo not shown) [SH-053-2′N-S-CH3]
Result block: 5.58

====

- measuredTarget: GABAA/α3 (α3β3γ2 GABAA receptor) (Homo sapiens, UniProt P18507+P34903)
- Construct: expressed in transfected cells
- assaySummary: competitive binding assay with [3H]flunitrazepam
- conditionInfo: Binding Affinity at GABAA/α3, Table 3
Listed next: entries and their corresponding pKi.
Note: pKi values are expressed as the negative base-10 logarithm of concentration in M.

CCOC(=O)c1ncn2c1CN=C(c1ccccc1)c1cc(I)ccc1-2
7.11

Query block: Return reported pKi; argument: "C#Cc1ccc2c(c1)C(c1ccccc1)=NCc1c(-c3nc(CC)no3)ncn1-2"
Result block: 6.59

====

Listed next: entries and their corresponding pKi.
- measuredTarget: GABAA/α5 (α5β3γ2 GABAA receptor) (Homo sapiens, UniProt P18507+P31644)
- Construct: expressed in transfected cells
- assaySummary: competitive binding assay with [3H]flunitrazepam
- conditionInfo: Table 3; read-out: Binding Affinity at GABAA/α5
Note: pKi values are expressed as the negative base-10 logarithm of concentration in M.

C#Cc1ccc2c(c1)C(c1ccccc1F)=NCc1c(C(=O)OCC)ncn1-2
9.17

Query block: Return reported pKi; argument: "C#Cc1ccc2c(c1)C(c1ccccc1)=NCC(=O)N2C"
Result block: 8.17

Query block: Now give it for "C#Cc1ccc2c(c1)C(c1ccccc1Cl)=NCc1nnc(C)n1-2" too.
Result block: 8.36
